- experimentalSystem: Peroxisome proliferator-activated receptor gamma (Mus musculus)
- Sequence (P37238 whole entry): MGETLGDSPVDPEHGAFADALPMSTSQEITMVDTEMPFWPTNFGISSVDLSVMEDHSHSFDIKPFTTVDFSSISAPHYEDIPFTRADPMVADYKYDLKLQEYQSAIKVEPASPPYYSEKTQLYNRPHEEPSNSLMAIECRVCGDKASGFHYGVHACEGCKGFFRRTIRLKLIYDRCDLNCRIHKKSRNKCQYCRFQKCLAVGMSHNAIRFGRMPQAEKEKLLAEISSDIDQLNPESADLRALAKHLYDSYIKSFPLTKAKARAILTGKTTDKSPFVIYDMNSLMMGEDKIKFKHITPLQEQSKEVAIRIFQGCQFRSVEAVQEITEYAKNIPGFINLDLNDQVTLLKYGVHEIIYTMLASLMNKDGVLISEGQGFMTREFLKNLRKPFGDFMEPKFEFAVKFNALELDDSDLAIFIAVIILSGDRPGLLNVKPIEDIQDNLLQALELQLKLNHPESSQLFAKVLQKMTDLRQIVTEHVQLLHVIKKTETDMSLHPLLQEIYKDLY
quantityName: EC50 (µM)
Give the number; µM is assumed, so skip it.

EC50 for `CSc1nc(SCc2ccccc2)c(C(=O)O)c(SCc2ccccc2)n1` ? 0.158

====

- experimentalSystem: Peroxisome proliferator-activated receptor gamma (Homo sapiens, UniProt P37231)
- Sequence (P37231 whole entry): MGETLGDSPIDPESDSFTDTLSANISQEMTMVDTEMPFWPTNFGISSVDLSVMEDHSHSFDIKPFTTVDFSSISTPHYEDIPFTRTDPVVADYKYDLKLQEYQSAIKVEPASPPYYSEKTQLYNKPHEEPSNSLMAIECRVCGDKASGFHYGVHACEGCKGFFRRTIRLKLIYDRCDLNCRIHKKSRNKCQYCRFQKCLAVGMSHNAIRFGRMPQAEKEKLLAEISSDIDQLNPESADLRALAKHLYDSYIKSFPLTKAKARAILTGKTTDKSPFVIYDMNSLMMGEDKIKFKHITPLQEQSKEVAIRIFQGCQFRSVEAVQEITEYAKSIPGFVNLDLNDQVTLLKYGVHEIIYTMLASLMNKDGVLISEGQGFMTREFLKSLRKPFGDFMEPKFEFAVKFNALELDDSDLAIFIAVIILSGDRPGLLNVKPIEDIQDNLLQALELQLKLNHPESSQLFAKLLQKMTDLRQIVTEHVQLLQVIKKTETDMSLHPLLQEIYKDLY
quantityName: pEC50
# pEC50: negative log10 of molar concentration; output just the value

Example molecules with recorded pEC50:
pEC50 for `CCCCNc1nc(NCc2ccccc2)c(C(=O)O)c(SCc2ccccc2)n1` ? 6.33

Entry to check: `CSc1nc(NCc2cccnc2)c(C(=O)O)c(SCc2ccccc2)n1` 6.13

Entry to check: `CSc1nc(NCc2ccccc2)c(C(=O)O)c(SCc2ccccc2)n1` 6.74

Further cases:
pEC50 for `CSc1nc(NC2CC2)c(C(=O)O)c(SCc2ccccc2)n1` ? 5.74

Entry to check: `CSc1nc(NCCc2ccccc2)c(C(=O)O)c(SCc2ccccc2)n1` 6.17

====

- procedureText: Clearance in mouse at 1 mg/kg, iv
- Type: ADME, organism-based
- Parameters: dose 1 mg/kg, route intravenous
- experimentalSetup: in vivo
quantityName: clearance (mL/min/kg)
Give the number; mL/min/kg is assumed, so skip it.

clearance for `CSc1nc(SCc2ccccc2)c(C(=O)O)c(SCc2ccccc2)n1` ? 1.88

Just for reference, ChEMBL document CHEMBL1177724 is where these values come from.
